Each entry below lists one item and its recorded Decrease in SBP value.
test system: Rattus norvegicus; test: Percentage fall in systolic blood pressure after 4 hr at 25 mg/kg given perorally; type: functional, Artery; details: route oral
Please don't drop the unit; write it after the number.

Sample records with Decrease in SBP:
* O=C1COC2(CCN(CC3COc4ccccc4O3)CC2)CN1 (stereo not given) | 38%
* CN1CC2(CCN(CC(O)C3COc4ccccc4O3)CC2)OCC1=O (stereo in doubt; 61) | 40%
* O=C1COC2(CCN(CC(O)C3COc4ccccc4O3)CC2)CN1c1ccccc1 (stereo not given) | 16%

Specify measured Decrease in SBP for "O=C1COC2(CCN(CCCC(=O)c3ccc(F)cc3)CC2)CN1" .
30%

Specify measured Decrease in SBP for "O=C(NC1CCN(CCc2c[nH]c3ccccc23)CC1)c1ccccc1" .
30%
